Molecular target: T1, monomeric cynomolgus LTBR ECD (S28-M227) Fc fusion avi biotinylated (P1AE4411) (cynomolgus, UniProt P0DOX5 223-449 = IgG part, biotinylated avi tag)
T1 construct: also called cyno LTBR
Assay: SPR, IgG captured;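 also: rate constants and KD obtained by fitting double-referenced sensorgrams to a 1:1 Langmuir binding model, with dissociation followed for 600 s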
Could you please report measured T1/2 for the items listed next?
Express it in min; write the number only.

### Prompt // lookup T1/2 for P1AF0079 (antibody, human IgG1, kappa, L234A L235A, V domains shown, human IgG1 PG LALA; from transgenic rabbit immunization; also called LTBR (0079)) VH: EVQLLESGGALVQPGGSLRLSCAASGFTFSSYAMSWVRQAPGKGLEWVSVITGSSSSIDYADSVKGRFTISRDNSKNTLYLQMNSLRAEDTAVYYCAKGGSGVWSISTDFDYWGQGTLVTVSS VL: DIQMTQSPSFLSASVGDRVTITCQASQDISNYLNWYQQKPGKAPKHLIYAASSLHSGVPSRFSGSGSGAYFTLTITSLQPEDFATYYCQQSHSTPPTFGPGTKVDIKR
### Response 5

### Prompt Try the binder P1AF0080 (antibody, human IgG1, kappa, L234A L235A, V domains shown, human IgG1 PG LALA; from transgenic rabbit immunization; also called LTBR (0080)) VH: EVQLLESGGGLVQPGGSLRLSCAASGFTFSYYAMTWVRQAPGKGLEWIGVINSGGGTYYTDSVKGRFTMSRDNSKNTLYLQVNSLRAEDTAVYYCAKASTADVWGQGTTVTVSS VL: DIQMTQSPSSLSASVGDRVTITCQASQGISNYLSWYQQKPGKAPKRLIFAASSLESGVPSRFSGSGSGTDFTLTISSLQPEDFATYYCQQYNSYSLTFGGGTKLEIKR
### Response 6

### Prompt Try the binder P1AF0064 (antibody, human IgG1, kappa, L234A L235A, V domains shown, human IgG1 PG LALA constant regions; V domains from rat immunization; also called LTBR (0064)) VH: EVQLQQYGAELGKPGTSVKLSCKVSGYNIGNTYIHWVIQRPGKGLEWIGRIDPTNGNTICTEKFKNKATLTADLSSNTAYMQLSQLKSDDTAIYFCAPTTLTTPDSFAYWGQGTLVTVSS VL: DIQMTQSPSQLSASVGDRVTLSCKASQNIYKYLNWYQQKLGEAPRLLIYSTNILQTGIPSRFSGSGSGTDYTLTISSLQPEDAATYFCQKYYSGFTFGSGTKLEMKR
### Response 223
